molecular target: AKT1 (Homo sapiens, UniProt P31749); test: AKT Kinase Assay (IMAP fluorescent polarisation), AKT1 isoform; details: activated AKT1, FAM Crosstide substrate
Sequence (P31749 whole entry, canonical isoform): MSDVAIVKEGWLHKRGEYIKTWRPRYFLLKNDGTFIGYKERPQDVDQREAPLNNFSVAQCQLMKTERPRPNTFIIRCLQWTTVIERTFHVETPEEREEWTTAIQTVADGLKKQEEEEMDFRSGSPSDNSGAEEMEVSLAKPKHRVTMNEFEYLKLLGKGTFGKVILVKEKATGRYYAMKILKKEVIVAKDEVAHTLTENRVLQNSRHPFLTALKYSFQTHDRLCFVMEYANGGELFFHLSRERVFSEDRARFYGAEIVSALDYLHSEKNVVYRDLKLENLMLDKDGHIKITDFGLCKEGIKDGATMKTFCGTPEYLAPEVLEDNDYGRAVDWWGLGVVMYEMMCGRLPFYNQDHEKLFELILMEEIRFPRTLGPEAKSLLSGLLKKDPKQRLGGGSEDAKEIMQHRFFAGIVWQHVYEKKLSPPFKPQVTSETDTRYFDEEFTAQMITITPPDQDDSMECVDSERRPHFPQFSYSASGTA
Overview of reported IC50 across a group of compounds:

Here is how some compounds turned out for IC50.
{"Compound": "N[C@]1(c2ccc(-c3sc4ncn(CC(F)(F)F)c(=O)c4c3-c3ccccc3)cc2)C[C@H](O)C1", "Val": "≤ 300 nM"}
{"Compound": "Cn1c(-c2ccc([C@]3(N)C[C@](C)(O)C3)cc2)c(-c2ccccc2)c2c(=O)n(CC(F)(F)F)cnc21", "Val": "≤ 300 nM"}
{"Compound": "NC1(c2ccc(-c3sc4ncn(CC(F)(F)F)c(=O)c4c3-c3ccccc3)cc2)CCC1 [Compound F, reference compound]", "Val": "300 to 1500 nM"}
{"Compound": "Cn1c(-c2ccc(C3(N)CCC3)cc2)c(-c2ccccc2)c2c(=O)n(CC(F)(F)F)cnc21 [Compound L, reference compound]", "Val": "300 to 1500 nM"}

## Input Look up IC50: "C[C@]1(O)C[C@](N)(c2ccc(-c3sc4ncn(CC(F)(F)F)c(=O)c4c3-c3ccccn3)cc2)C1"
## Output > 1500 nM

## Input Look up IC50: "Cn1c(-c2ccc([C@]3(N)C[C@](C)(O)C3)cc2)c(-c2ccccn2)c2c(=O)n(CC(F)(F)F)cnc21"
## Output > 1500 nM

## Input Look up IC50: "Cn1c(-c2ccc([C@]3(N)C[C@@](C)(O)C3)cc2)c(-c2ccccc2)c2c(=O)n(CC(F)(F)F)cnc21"
## Output 300 to 1500 nM

## Input Look up IC50: NC1(c2ccc(-c3oc4ncn(CC(F)(F)F)c(=O)c4c3-c3ccccc3)cc2)CCC1 [Compound A, reference compound]
## Output > 1500 nM

## Input Look up IC50: "C[C@]1(O)C[C@@](N)(c2ccc(-c3oc4ncn(CC(F)(F)F)c(=O)c4c3-c3ccccc3)cc2)C1"
## Output ≤ 300 nM

## Input Look up IC50: "Cn1c(-c2ccc([C@]3(N)C[C@@](C)(O)C3)cc2)c(-c2ccccn2)c2c(=O)n(CC(F)(F)F)cnc21"
## Output > 1500 nM

## Input Look up IC50: "Cn1c(-c2ccc([C@]3(N)C[C@](C)(O)C3)cc2)c(-c2ccncc2)c2c(=O)n(CC(F)(F)F)cnc21"
## Output > 1500 nM

## Input Look up IC50: "Cn1c(-c2ccc([C@]3(N)C[C@@H](O)C3)cc2)c(-c2ccccc2)c2c(=O)n(CC(F)(F)F)cnc21"
## Output 300 to 1500 nM

## Input Look up IC50: "C[C@]1(O)C[C@@](N)(c2ccc(-c3sc4ncn(CC(F)(F)F)c(=O)c4c3-c3ccccc3)cc2)C1"
## Output ≤ 300 nM

## Input Look up IC50: "C[C@]1(O)C[C@@](N)(c2ccc(-c3oc4ncn(CC(F)(F)F)c(=O)c4c3-c3ccccn3)cc2)C1"
## Output > 1500 nM

## Input Look up IC50: "Cn1c(-c2ccc([C@]3(N)C[C@](C)(O)C3)cc2)c(-c2cccnc2)c2c(=O)n(CC(F)(F)F)cnc21"
## Output > 1500 nM

## Input Look up IC50: "C[C@]1(O)C[C@](N)(c2ccc(-c3sc4ncn(CC(F)(F)F)c(=O)c4c3-c3ccccc3)cc2)C1"
## Output ≤ 300 nM

Reference source: patent US9156853B2
